Measurement protocol: Cytotoxicity assay revealed by MTT after seven days of culture
Format: cell-based, human
Condition description: human, PBMC, 50% diminution of growth and viability
Let's look at some compounds and their measured CC50 at 7 days.
Measured metric: CC50 at 7 days

>>> value_measured("CCc1c(Cc2cc(C)cc(C)c2)n(COCCCNC(=O)NO)c(=O)[nH]c1=O [Compound 1]")
"260 µM"
>>> value_measured("CC(=O)ON(CCCOCn1c(Cc2cc(C)cc(C)c2)c(C(C)C)c(=O)[nH]c1=O)C(N)=O [Compound 4]")
"30 µM"
>>> value_measured("CCOCn1c(Cc2ccccc2)c(C(C)C)c(=O)[nH]c1=O [Comparative 4, reference compound]")
"> 30 µM"
>>> value_measured("CCc1c(Cc2cc(C)cc(C)c2)n(COCCN(O)C(N)=O)c(=O)[nH]c1=O [Comparative 1]")
"> 500 µM"
>>> value_measured("Cc1cc(C)cc(Cc2c(C(C)C)c(=O)[nH]c(=O)n2COCCCN(O)C(N)=O)c1 [Compound 3]")
"220 µM"
>>> value_measured("CCc1c(Cc2ccccc2)n(COCCN(O)C(N)=O)c(=O)[nH]c1=O [Comparative 3]")
"> 250 µM"
>>> value_measured("CCc1c(Cc2cc(C)cc(C)c2)n(COCCCCN(O)C(N)=O)c(=O)[nH]c1=O [Comparative 2]")
"> 50 µM"
>>> value_measured("CCc1c(Cc2cc(C)cc(C)c2)n(COCCCN(O)C(N)=O)c(=O)[nH]c1=O [Compound 2]")
"> 300 µM"
